# Measured on: KRas^G12V (Homo sapiens, UniProt P01116, G12V)
# Construct: Biotinylated KRas (corresponding to amino acids 1-169, produced at Accelegan Inc.); biotin (biotinylated); purchased Accelegan Inc
# Sequence (P01116 1-169 isoform P01116-2 G12V): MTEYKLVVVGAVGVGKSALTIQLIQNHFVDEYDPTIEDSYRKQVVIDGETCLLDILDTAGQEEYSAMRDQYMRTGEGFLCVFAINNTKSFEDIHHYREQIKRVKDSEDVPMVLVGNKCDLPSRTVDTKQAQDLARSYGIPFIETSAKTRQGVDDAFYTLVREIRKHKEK
# Experimental protocol: KRas binding assay (TR-FRET tracer displacement), KRas G12V
Value kind: IC50 (nM)
Numbers only, in nM.

molecule="CCOC(=O)C12CCC(CN(c3nc(OC[C@@]45CCCN4C[C@H](F)C5)nc4c(F)c(-c5cc(O)cc6ccc(F)c(CC)c56)ncc34)C1)C2(F)F (stereo partly drawn)" measured_on="KRas^G12V (Homo sapiens, UniProt P01116, G12V)" units_text=nM recorded_value=240

Give IC50 for all molecules that follow.
1. CCc1c(F)ccc2cc(O)cc(-c3ncc4c(N5CCC(C)C(F)(F)CC5)nc(OC[C@@]56CCCN5C[C@H](F)C6)nc4c3F)c12 (stereo partly drawn)
2. CCc1c(F)ccc2cc(O)cc(-c3ncc4c(N5CC6CCC(COCCOC)(C6)C5)nc(OC[C@@]56CCCN5C[C@H](F)C6)nc4c3F)c12 (stereo partly drawn)

[39, 6]

Read the entry `CCc1c(F)ccc2cc(O)cc(-c3ncc4c(N5CCOCC6(CCS(=O)(=O)CC6)C5)nc(OC[C@@]56CCCN5C[C@H](F)C6)nc4c3F)c12` and write its reported IC50. 203
